settings: [M-H2O-H]-; instrument: DT; single field, calibrated with Agilent tune mix (Agilent)
reportedMetric: collision cross section (N2) (Å²)
Form entry: value (Å²) — number only.

Reported collision cross section (N2), compound C[C@]12CCC(=O)C=C1CC[C@@H]1[C@@H]2[C@@H](O)C[C@@]2(C)[C@H]1CC[C@]2(O)C(=O)CO [Hydrocortisone] : ____
182.99

What would you report for CC(=O)[C@H]1CC[C@H]2[C@@H]3CCC4=CC(=O)CC[C@]4(C)[C@H]3[C@@H](O)C[C@]12C [11beta-Hydroxyprogesterone] ?
180.95

Thanks! And Nc1nc(=O)c2ncn([C@H]3C[C@H](O)[C@@H](COP(=O)(O)OP(=O)(O)O)O3)c2[nH]1 [2'-Deoxyguanosine 5'-diphosphate] ?
174.28

Same lookup for CCCCC[C@H](O)/C=C/[C@H]1C(=O)C[C@H](O)[C@@H]1C/C=C\CCCC(=O)O [Prostaglandin D2] , please.
186.17

Next record, please: CCCCC[C@H](O)/C=C/[C@H]1[C@H](O)CC(=O)[C@@H]1C/C=C\CCCC(=O)O [Prostaglandin E2]
183.57

// repeat for CC(=O)N[C@@H](CC(=O)O)C(=O)N[C@@H](CCC(=O)O)C(=O)O [N-Acetylaspartylglutamate] and report
156.77

Okay, and C[C@H](O)C(=O)C1=Nc2c([nH]c(N)nc2=O)NC1 [Sepiapterin] ?
144.47

====

conditions: [M+Na]+; instrument: TW; calibrated with polyalanine and drug standards
Decide using collision cross section (N2): a value greater than or equal to 200 Å² is true (1), a smaller one is false (0).

Reported collision cross section (N2) reaches at least 200 Å² for CC(=O)Oc1cccc(C(=O)O)c1OC(C)=O ?
false (0)

For C=C(C)[C@@H]1[C@H]2OC(=O)[C@@H]1[C@]1(O)C[C@H]3O[C@]34C(=O)O[C@H]2[C@]14C then?
false (0)

Also C=CC[C@@H]1/C=C(\C)C[C@H](C)C[C@H](OC)[C@H]2O[C@@](O)(C(=O)C(=O)N3CCCC[C@H]3C(=O)O[C@H](/C(C)=C/[C@@H]3CC[C@@H](O)[C@H](OC)C3)[C@H](C)[C@@H](O)CC1=O)[C@H](C)C[C@@H]2OC ?
true (1)

Would you kindly repeat that for CC1CC(OC(=O)C(O)c2ccccc2)CC(C)(C)C1 (stereo not given) [CYCLANDELATE] ?
false (0)

# repeat for CC(C)(O)[C@@H]1[C@H]2OC(=O)[C@@H]1[C@]1(O)C[C@H]3O[C@]34C(=O)O[C@H]2[C@]14C
false (0)

Cool, now CCCCCCCCCCCC[C@@H](C(=O)O)[C@H](C)C(=O)O
false (0)

// repeat for CCCCCCCCCCCCCCC(C(=O)O)C(O)(CC(=O)OC)C(=O)O (stereo not given) and report
true (1)

Record: C#CCCCCCCCCCCCC(O)CC(O)COC(C)=O (stereo not given) [AVOCADYNE ACETATE]
false (0)

Field entry: COc1ccc2c(c1OC)OC[C@@H](c1ccc(OC)c(OC)c1OC)C2
false (0)

Moving on to the next molecule: COC(C)(C)CCC[C@H](C)C/C=C/C(C)=C/C(=O)OC(C)C [METHOPRENE (S)]
false (0)

Also need OC[C@H]1O[C@H](O[C@]2(CCl)O[C@H](CCl)[C@@H](O)[C@@H]2O)[C@H](O)[C@@H](O)[C@H]1Cl , thanks.
false (0)

Next entry: CC(C)CC(NC(=O)OCC1c2ccccc2-c2ccccc21)C(=O)O (stereo in doubt)
false (0)

Source of measurements: the C3SDB collision cross section collection
